Experiment: self-splicing fitness, log relative to wild type (ln ratio); higher = more splicing; Tetrahymena group I intron in knt gene, E. coli kanamycin selection, DiMSum; sequences stand for … in CUCUCU…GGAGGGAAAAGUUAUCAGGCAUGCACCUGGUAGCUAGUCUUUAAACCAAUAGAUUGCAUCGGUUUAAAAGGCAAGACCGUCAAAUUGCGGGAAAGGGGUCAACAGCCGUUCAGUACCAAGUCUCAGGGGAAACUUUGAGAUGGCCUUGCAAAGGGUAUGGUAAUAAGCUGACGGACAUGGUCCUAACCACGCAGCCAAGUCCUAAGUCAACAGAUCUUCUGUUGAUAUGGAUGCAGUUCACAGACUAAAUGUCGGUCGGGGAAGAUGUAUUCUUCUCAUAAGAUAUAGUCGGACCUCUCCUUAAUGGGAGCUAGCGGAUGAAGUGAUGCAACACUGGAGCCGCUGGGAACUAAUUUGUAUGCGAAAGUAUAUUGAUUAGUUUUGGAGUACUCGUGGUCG;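 note: selection with 25 µg/mL kanamycin versus none on LB agar overnight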
Details: 37 °C
The following sequences are shown together with reported self-splicing fitness (ln) values.
parameter: self-splicing fitness (ln)

[[record]]
construct_sequence = "UCUGAGCAAUAUUACGCGGA"
parameter = "self-splicing fitness (ln)"
recorded_measurement = -2.66

[[record]]
construct_sequence = "ACCAAGCAAUAUUACGCAUG"
parameter = "self-splicing fitness (ln)"
recorded_measurement = -2.2

[[record]]
construct_sequence = "AGUGAGCAAUAUUACGAAGA"
parameter = "self-splicing fitness (ln)"
recorded_measurement = -1.85

[[record]]
construct_sequence = "CCGCAGCAAUAUUACGAGUU"
parameter = "self-splicing fitness (ln)"
recorded_measurement = -2.56

[[record]]
construct_sequence = "GAGUAGCAAUAUUACGCUUG"
parameter = "self-splicing fitness (ln)"
recorded_measurement = -0.313

[[record]]
construct_sequence = "UGGCAGCAAUAUUACGACCA"
parameter = "self-splicing fitness (ln)"
recorded_measurement = -0.654

[[record]]
construct_sequence = "AGGUAGCAAUAUUACGUUAC"
parameter = "self-splicing fitness (ln)"
recorded_measurement = -2.85

[[record]]
construct_sequence = "UCAUAGCAAUAUUACGUAUC"
parameter = "self-splicing fitness (ln)"
recorded_measurement = -3.23

[[record]]
construct_sequence = "CCAAAGCAAUAUUACGAAGG"
parameter = "self-splicing fitness (ln)"
recorded_measurement = -2.9

[[record]]
construct_sequence = "CCAUAGCAAUAUUACGAAGA"
parameter = "self-splicing fitness (ln)"
recorded_measurement = -2.91

[[record]]
construct_sequence = "UUACAGCAAUAUUACGAAUC"
parameter = "self-splicing fitness (ln)"
recorded_measurement = -2.13

[[record]]
construct_sequence = "GUUAAGCAAUAUUACGCUCG"
parameter = "self-splicing fitness (ln)"
recorded_measurement = 0.0474

[[record]]
construct_sequence = "UCCAAGCAAUAUUACGUUCA"
parameter = "self-splicing fitness (ln)"
recorded_measurement = -0.51

[[record]]
construct_sequence = "CUACAGCAAUAUUACGAAGA"
parameter = "self-splicing fitness (ln)"
recorded_measurement = -2.56

[[record]]
construct_sequence = "CCCUAGCAAUAUUACGUGGA"
parameter = "self-splicing fitness (ln)"
recorded_measurement = -0.882

[[record]]
construct_sequence = "GUAUAGCAAUAUUACGGGCC"
parameter = "self-splicing fitness (ln)"
recorded_measurement = -1.55

[[record]]
construct_sequence = "UGCAAGCAAUAUUACGACCG"
parameter = "self-splicing fitness (ln)"
recorded_measurement = 0.563

[[record]]
construct_sequence = "GACUAGCAAUAUUACGAGAU"
parameter = "self-splicing fitness (ln)"
recorded_measurement = -1.57

[[record]]
construct_sequence = "CGUCAGCAAUAUUACGUUAG"
parameter = "self-splicing fitness (ln)"
recorded_measurement = -0.365

[[record]]
construct_sequence = "GGUUAGCAAUAUUACGUGAA"
parameter = "self-splicing fitness (ln)"
recorded_measurement = -0.9

[[record]]
construct_sequence = "UCAAAGCAAUAUUACGAGUC"
parameter = "self-splicing fitness (ln)"
recorded_measurement = -2.26

[[record]]
construct_sequence = "AUCCAGCAAUAUUACGCGCC"
parameter = "self-splicing fitness (ln)"
recorded_measurement = 0.126

[[record]]
construct_sequence = "GGGGAGCAAUAUUACGACGA"
parameter = "self-splicing fitness (ln)"
recorded_measurement = -1.34

[[record]]
construct_sequence = "CGAGAGCAAUAUUACGAGUC"
parameter = "self-splicing fitness (ln)"
recorded_measurement = -3.75

[[record]]
construct_sequence = "CGGCAGCAAUAUUACGCGCC"
parameter = "self-splicing fitness (ln)"
recorded_measurement = -3.04

